Values from paper PMC11859184

Assay overview: Ex vivo biodistribution of 68Ga-labeled tracers in PC-3 tumor-bearing mice
Test context: male, NOD.Cg-Rag1^tm1Mom Il2rg^tm1Wjl/SzJ (NRG), mouse, tumor/blood, iv, total radioactivity, 1 h pi, n = 4; read-out: Tumor/blood uptake ratio
Experimental readout: tissue to tissue ratio at 1 h
Simply state the number, no unit and no words.

Molecule	tissue to tissue ratio at 1 h
CC(C)C[C@@H](CN1CC(F)(F)C[C@H]1C(N)=O)NC(=O)[C@H](Cc1c[nH]cn1)NC(=O)CN(C)C(=O)[C@@H](NC(=O)[C@H](C)NC(=O)[C@H](Cc1c[nH]c2ccccc12)NC(=O)[C@H](CCC(N)=O)NC(=O)[C@@H](Cc1ccccc1)NC(=O)CN1CCC(NC(=O)CN2CCN(CC(=O)O)CCN(CC(=O)O)CCN(CC(=O)O)CC2)CC1)C(C)C [[^68Ga]Ga-LW02080, metal not drawn]	22.7

// switching to the query molecule
Briefly, tissue to tissue ratio at 1 h measured for CC(C)C[C@H](NC(=O)[C@H](Cc1cnc[nH]1)N(C)C(=O)CNC(=O)[C@@H](NC(=O)[C@H](C)NC(=O)[C@H](Cc1c[nH]c2ccccc12)NC(=O)[C@H](CCC(N)=O)NC(=O)[C@@H](Cc1ccccc1)NC(=O)CN1CCC(NC(=O)CN2CCN(CC(=O)O)CCN(CC(=O)O)CCN(CC(=O)O)CC2)CC1)C(C)(C)C)C(=O)N1CC(F)(F)C[C@H]1C(N)=O [[^68Ga]Ga-LW02060, metal not drawn] : 29.1

----------
Assay overview: Ex vivo biodistribution of 177Lu-labeled ligands in PC-3 tumor-bearing mice
Test context: mouse, kidneys, intravenous, 120 h pi, n = 5; read-out: Kidneys uptake
Listing of entries alongside the reported tissue uptake at 120 h.
I only need the number, in %ID/g, no unit after it.

Molecule	Experimental readout	Number
CC(C)C[C@H](NC(=O)[C@H](Cc1cnc[nH]1)N(C)C(=O)CNC(=O)[C@@H](NC(=O)[C@H](C)NC(=O)[C@H](Cc1c[nH]c2ccccc12)NC(=O)[C@H](CCC(N)=O)NC(=O)[C@@H](Cc1ccccc1)NC(=O)CN1CCC(NC(=O)CN2CCN(CC(=O)O)CCN(CC(=O)O)CCN(CC(=O)O)CC2)CC1)C(C)(C)C)C(=O)N1CC(F)(F)C[C@H]1C(N)=O [[^177Lu]Lu-LW02060, metal not drawn]	tissue uptake at 120 h	0.15

// switching to the query molecule
Briefly, tissue uptake at 120 h measured for CC(C)C[C@@H](CN1CC(F)(F)C[C@H]1C(N)=O)NC(=O)[C@H](Cc1c[nH]cn1)NC(=O)CN(C)C(=O)[C@@H](NC(=O)[C@H](C)NC(=O)[C@H](Cc1c[nH]c2ccccc12)NC(=O)[C@H](CCC(N)=O)NC(=O)[C@@H](Cc1ccccc1)NC(=O)CN1CCC(NC(=O)CN2CCN(CC(=O)O)CCN(CC(=O)O)CCN(CC(=O)O)CC2)CC1)C(C)C [[^177Lu]Lu-LW02080, metal not drawn] : 0.12

----------
Assay overview: Ex vivo biodistribution of 68Ga-labeled tracers in PC-3 tumor-bearing mice
Test context: mouse, fat, intravenous; 1 h pi, n = 4; read-out: Fat uptake
Listing of entries alongside the reported tissue uptake at 1 h.
I only need the number, in %ID/g, no unit after it.

Compound	Number
CC(C)C[C@H](NC(=O)[C@H](Cc1cnc[nH]1)N(C)C(=O)CNC(=O)[C@@H](NC(=O)[C@H](C)NC(=O)[C@H](Cc1c[nH]c2ccccc12)NC(=O)[C@H](CCC(N)=O)NC(=O)[C@@H](Cc1ccccc1)NC(=O)CN1CCC(NC(=O)CN2CCN(CC(=O)O)CCN(CC(=O)O)CCN(CC(=O)O)CC2)CC1)C(C)(C)C)C(=O)N1CC(F)(F)C[C@H]1C(N)=O [[^68Ga]Ga-LW02060, metal not drawn]	0.05

// switching to the query compound
Briefly, tissue uptake at 1 h measured for CC(C)C[C@@H](CN1CC(F)(F)C[C@H]1C(N)=O)NC(=O)[C@H](Cc1c[nH]cn1)NC(=O)CN(C)C(=O)[C@@H](NC(=O)[C@H](C)NC(=O)[C@H](Cc1c[nH]c2ccccc12)NC(=O)[C@H](CCC(N)=O)NC(=O)[C@@H](Cc1ccccc1)NC(=O)CN1CCC(NC(=O)CN2CCN(CC(=O)O)CCN(CC(=O)O)CCN(CC(=O)O)CC2)CC1)C(C)C [[^68Ga]Ga-LW02080, metal not drawn] : 0.03

----------
Assay overview: Ex vivo biodistribution of 177Lu-labeled ligands in PC-3 tumor-bearing mice
Test context: mouse, pancreas, intravenous, 120 h pi, n = 5; read-out: Pancreas uptake
Experimental readout: tissue uptake at 120 h (%ID/g)
I only need the number, in %ID/g, no unit after it.

Molecule	tissue uptake at 120 h (%ID/g)
CC(C)C[C@@H](CN1CC(F)(F)C[C@H]1C(N)=O)NC(=O)[C@H](Cc1c[nH]cn1)NC(=O)CN(C)C(=O)[C@@H](NC(=O)[C@H](C)NC(=O)[C@H](Cc1c[nH]c2ccccc12)NC(=O)[C@H](CCC(N)=O)NC(=O)[C@@H](Cc1ccccc1)NC(=O)CN1CCC(NC(=O)CN2CCN(CC(=O)O)CCN(CC(=O)O)CCN(CC(=O)O)CC2)CC1)C(C)C [[^177Lu]Lu-LW02080, metal not drawn]	0.01

// switching to the query molecule
Briefly, tissue uptake at 120 h measured for CC(C)C[C@H](NC(=O)[C@H](Cc1cnc[nH]1)N(C)C(=O)CNC(=O)[C@@H](NC(=O)[C@H](C)NC(=O)[C@H](Cc1c[nH]c2ccccc12)NC(=O)[C@H](CCC(N)=O)NC(=O)[C@@H](Cc1ccccc1)NC(=O)CN1CCC(NC(=O)CN2CCN(CC(=O)O)CCN(CC(=O)O)CCN(CC(=O)O)CC2)CC1)C(C)(C)C)C(=O)N1CC(F)(F)C[C@H]1C(N)=O [[^177Lu]Lu-LW02060, metal not drawn] : 0.11

----------
Assay overview: Ex vivo biodistribution of 177Lu-labeled ligands in PC-3 tumor-bearing mice
Test context: mouse, bone, intravenous, 72 h pi, n = 5; read-out: Bone uptake
Experimental readout: tissue uptake at 72 h (%ID/g)
I only need the number, in %ID/g, no unit after it.

Compound	Unit tag	tissue uptake at 72 h
CC(C)C[C@@H](CN1CC(F)(F)C[C@H]1C(N)=O)NC(=O)[C@H](Cc1c[nH]cn1)NC(=O)CN(C)C(=O)[C@@H](NC(=O)[C@H](C)NC(=O)[C@H](Cc1c[nH]c2ccccc12)NC(=O)[C@H](CCC(N)=O)NC(=O)[C@@H](Cc1ccccc1)NC(=O)CN1CCC(NC(=O)CN2CCN(CC(=O)O)CCN(CC(=O)O)CCN(CC(=O)O)CC2)CC1)C(C)C [[^177Lu]Lu-LW02080, metal not drawn]	%ID/g	0.01

// switching to the query compound
Briefly, tissue uptake at 72 h measured for CC(C)C[C@H](NC(=O)[C@H](Cc1cnc[nH]1)N(C)C(=O)CNC(=O)[C@@H](NC(=O)[C@H](C)NC(=O)[C@H](Cc1c[nH]c2ccccc12)NC(=O)[C@H](CCC(N)=O)NC(=O)[C@@H](Cc1ccccc1)NC(=O)CN1CCC(NC(=O)CN2CCN(CC(=O)O)CCN(CC(=O)O)CCN(CC(=O)O)CC2)CC1)C(C)(C)C)C(=O)N1CC(F)(F)C[C@H]1C(N)=O [[^177Lu]Lu-LW02060, metal not drawn] : 0.02

----------
Assay overview: Ex vivo biodistribution of 68Ga-labeled tracers in PC-3 tumor-bearing mice
Test context: male, NOD.Cg-Rag1^tm1Mom Il2rg^tm1Wjl/SzJ (NRG), mouse, tumor/kidney, iv, total radioactivity, 1 h pi, n = 4; read-out: Tumor/kidney uptake ratio
Method: PET/CT imaging and biodistribution studies were conducted using male NOD.Cg-Rag1^tm1Mom Il2rg^tm1Wjl/SzJ (NRG) mice following previously published procedures. […] For ex vivo biodistribution studies, the mice were injected with the ^68Ga-labeled tracer (2–4 MBq) via a lateral caudal tail vein. […] Blood and organs/tissues of interest were collected, weighed, and counted using a gamma counter.
Experimental readout: tissue to tissue ratio at 1 h
Simply state the number, no unit and no words.

Compound	tissue to tissue ratio at 1 h
CC(C)C[C@H](NC(=O)[C@H](Cc1cnc[nH]1)N(C)C(=O)CNC(=O)[C@@H](NC(=O)[C@H](C)NC(=O)[C@H](Cc1c[nH]c2ccccc12)NC(=O)[C@H](CCC(N)=O)NC(=O)[C@@H](Cc1ccccc1)NC(=O)CN1CCC(NC(=O)CN2CCN(CC(=O)O)CCN(CC(=O)O)CCN(CC(=O)O)CC2)CC1)C(C)(C)C)C(=O)N1CC(F)(F)C[C@H]1C(N)=O [[^68Ga]Ga-LW02060, metal not drawn]	4.86

Briefly, tissue to tissue ratio at 1 h measured for CC(C)C[C@@H](CN1CC(F)(F)C[C@H]1C(N)=O)NC(=O)[C@H](Cc1c[nH]cn1)NC(=O)CN(C)C(=O)[C@@H](NC(=O)[C@H](C)NC(=O)[C@H](Cc1c[nH]c2ccccc12)NC(=O)[C@H](CCC(N)=O)NC(=O)[C@@H](Cc1ccccc1)NC(=O)CN1CCC(NC(=O)CN2CCN(CC(=O)O)CCN(CC(=O)O)CCN(CC(=O)O)CC2)CC1)C(C)C [[^68Ga]Ga-LW02080, metal not drawn] : 3.18
